Tested on: HCT116 MTAP null cells
Method Notes: HCT116 proliferation assay, MTAP null cells (CellTiter-Glo, 6 days)
Type: cell-based
Condition Summary: HCT116-MTAP null, 144 h, read-out: Protif_ HCT116-MTAP null IC50
Measurement Label: IC50 (nM)

Reference set (2 entries):
Compound	IC50 [nM]
Cc1cc2cc(C(=O)N(Cc3ccc(C(F)(F)F)cn3)C(C)c3ccnc(F)c3)ccc2nc1N (stereo not shown) [Example 797]	229
Cc1cc2cc(C(=O)N(Cc3ccc(C(F)(F)F)nn3)[C@@H]3CCOc4ccc(F)nc43)ccc2nc1N [Example 515]	23

[A] COC[C@@H](C)N(Cc1ccc(C#N)cn1)C(=O)c1ccc2nc(N)c(Br)cc2c1 [Example 733]
[B] CCn1ncc2c1CCCC2N(Cc1ccc(C(F)(F)F)cn1)C(=O)c1ccc2nc(N)c(C)cc2c1 (stereo not shown) [Example 673]
**Q:** Form field 'greater IC50' accepts A or B ; which applies? Please indicate the selected item by its label.
**A:** A

----------
Test system: HCT116 WT cells
Method Notes: HCT116 proliferation assay, WT cells (CellTiter-Glo, 6 days)
Type: cell-based
Condition Summary: Homo sapiens, HCT-116, 144 h, read-out: Prolif_HCT116-WT IC50
Measurement Label: IC50

Compound	IC50
Cc1cc2cc(C(=O)N(Cc3ccc(C#N)cn3)[C@@H]3CCC[C@H]3O)ccc2nc1N [Example 365]	> 10 µM
Cc1cc2cc(C(=O)N(Cc3ccc(N4CCC(C(N)=O)CC4)cc3)CC(C)C3CC3)ccc2nc1N (stereo not shown) [Example 571]	> 1 µM

Sample Cc1cc2cc(C(=O)N(Cc3ccc(C(F)(F)F)cn3)Cc3ncccc3F)ncc2nc1N [Example 312] , system: HCT116 WT cells. Its IC50 is > 10 µM

Tested on HCT116 WT cells, the item Cc1cc2cc(C(=O)N(Cc3ccc(C(F)(F)F)cn3)C3CCc4[nH]ncc4C3)ccc2nc1N (stereo not shown) [Example 672] showed IC50 equal to > 1 µM

----------
Test system: HCT116 MTAP null cells
Method Notes: HCT116 proliferation assay, MTAP null cells (CellTiter-Glo, 6 days)
Format: cell-based
Condition Summary: HCT116-MTAP null, 144 h, read-out: Protif_ HCT116-MTAP null IC50
Measurement Label: IC50 (nM)

Compound	IC50, nM
Cc1cc2cc(C(=O)N(Cc3ccc(C(F)(F)F)cn3)[C@H](C)c3cnccn3)cnc2nc1N	732
Cc1ccc2c(c1)C(N(Cc1ccc(C(F)(F)F)cn1)C(=O)c1ccc3nc(N)c(C)cc3c1)CC2 (stereo not drawn)	187
Cc1cc2cc(C(=O)N(Cc3cc4ccccc4cn3)C(C)c3ncccn3)ccc2nc1N (stereo not drawn)	119
Cc1cc2cc(C(=O)N(Cc3ncc(C(F)(F)F)cc3F)CC(C)C)ccc2nc1N	620
Cc1cc2cc(C(=O)N(Cc3ccc(C(F)(F)F)cn3)C3CCC4CCCC4C3)ccc2nc1N (stereo not drawn)	820
Cc1cc2cc(C(=O)N(Cc3ccc(C(F)(F)F)cn3)C3COCc4ccccc43)ccc2nc1N (stereo not drawn)	185

[P] Cc1cc2cc(C(=O)N(Cc3cc(Cl)c(C#N)cn3)[C@H](C)c3ncccn3)ccc2nc1N
[Q] COc1ccc(CN(C(=O)c2ccc3nc(N)c(C)cc3c2)[C@@H](c2ncccn2)C2CC2)nn1 (single isomer, unassigned)
[R] Cc1cc2cc(C(=O)N(Cc3ccc(C(F)(F)F)cn3)CC3CCn4ccnc4C3)ccc2nc1N (stereo not drawn)
[S] C#CC(C)N(Cc1ccc(C(F)(F)F)cn1)C(=O)c1ccc2nc(N)c(C)cc2c1 (stereo not drawn)
**Q:** Descending sort on IC50 required. Reply: labels, ordered per the request.
**A:** R, S, P, Q

[I] Cc1cc2cc(C(=O)N(Cc3ccc4c(c3)NC(=O)CO4)Cc3ccccc3F)ccc2nc1N
[II] C[C@H](c1ncccn1)N(Cc1ccc(C(F)(F)F)cn1)C(=O)c1ccc2nc(N)c(Br)cc2c1
**Q:** Lab note: record which item had the higher IC50, I or II . Please indicate the selected item by its label.
**A:** I
(I: 331 nM, II: 49 nM)

[I] Cc1cc2cc(C(=O)N(Cc3ccc(Br)cn3)[C@H](C)c3ncccc3Cl)ccc2nc1N
[II] CC[C@H](c1ncccn1)N(Cc1ccc(C(F)(F)F)cn1)C(=O)c1cnc2nc(N)c(Br)cc2c1 (single isomer, unassigned)
[III] Cc1cc2cc(C(=O)N(Cc3ccc(C(F)(F)F)cn3)C3CCCC3C#N)c(F)cc2nc1N (stereo not drawn)
[IV] Cc1cc2cc(C(=O)N(Cc3ccc(C(F)(F)F)cn3)C3CC(C)c4ccccc43)ccc2nc1N (stereo not drawn)
**Q:** Hey, quick one: sort these by IC50, low to high? I would appreciate it if you listed the labels in the requested order.
**A:** III, II, I, IV
(III: 46 nM, II: 96 nM, I: 384 nM, IV: 990 nM)

[A] C[C@H](c1ncccn1)N(Cc1ccc(C(F)(F)F)cn1)C(=O)c1ccc2nc(N)cc(Cl)c2c1
[B] Cc1cc2cc(C(=O)N(Cc3ccc(C(F)(F)F)cn3)[C@@H]3CCC[C@H]3C#N)ccc2nc1N (single isomer, unassigned)
**Q:** I'm curious, which of these has a smaller IC50 number: A or B ? Write the label of whichever entry you select.
**A:** B

src = patent US20230159510A1
